Test system: OVCAR-3 ovarian
ASSAY DETAILS: NCI-60 one-dose screen, 48 h (100 = growth as untreated, 0 = no growth, -100 = all killed)
CONDITION CONTEXT: 10 µM unless noted
This is part of a sample that, as a whole, favours compounds with a hit. Of some 83,000 tested, about 20% had one in any assay.
ATTRIBUTE MEASURED: growth (%)
Dear colleague, please return just the value in %, with no unit written.

| MOLECULE | ASSAY TARGET | ATTRIBUTE MEASURED | RECORDED RESULT |
| --- | --- | --- | --- |
| COc1ccc(-c2nc3sccn3c2/C=C/C(=O)c2c[nH]c3ccccc23)cc1 | OVCAR-3 ovarian | growth | 68.1 |
| CCCCS(=O)(=O)Oc1ccc(-c2nc(C)c(C(=O)OCC)s2)cc1C=O | OVCAR-3 ovarian | growth | 65 |

Switching to the query record.
Under OVCAR-3 ovarian: report growth of Clc1ccc(/C=N\N=c2\scc(-c3ccc(Cl)cc3)n2/N=C/c2ccc(Cl)cc2)cc1 .
114

---

Test system: SNB-19 CNS
ASSAY DETAILS: NCI-60 one-dose screen, 48 h (100 = growth as untreated, 0 = no growth, -100 = all killed)
CONDITION CONTEXT: 10 µM unless noted
Experimental: Growth inhibition of the SNB-19 human tumor cell line is measured as a screen for anti-cancer activity. Cells are grown in 96 well plates and exposed to the test compound for 48 hours. Compounds are tested at a single concentration, which is 10^-5 M for most compounds. The reported endpoint is percent growth (GI% or GIPRCNT), where numbers from 0 - 100% represent growth inhibition, and numbers from -100% - 0 represent cell death. For example, a value of 40 represents 60% growth inhibition. […]
This is part of a sample that, as a whole, favours compounds with a hit. Of some 83,000 tested, about 20% had one in any assay. Active and inactive are the calls of the source. The calls were made as follows: active = growth percent below 10; inactive = the rest.
Each entry below carries its recorded growth.

| COMPOUND | growth |
| --- | --- |
| C[C@@H]1C(=O)N(C[C@H](Cc2ccccc2)NC(=O)OCc2ccccc2)[C@]1(Cc1ccccc1)C(=O)OC(C)(C)C | 71.7% (inactive) |
| O=C1CSC(c2ccccc2O)N1c1nnc(Cn2cnnc2)o1 (stereo not drawn) | 90.4% (inactive) |

Let us examine a further case.
Give me measured growth, please, for this compound: CC(=O)Nc1ccc(-c2cc3c(NCc4ccc(F)cc4)ncnc3s2)cc1
57.8% (inactive)

---

Tested on: SN12C renal
ASSAY DETAILS: NCI-60 one-dose screen, 48 h
CONDITION CONTEXT: 10 µM unless noted
Compounds without any hit were thinned out: in the full panel of roughly 83,000, 20% have a hit. The source made the active and inactive calls. The calls were made as follows: active = growth percent below 10; inactive = the rest.
// classify into Yes (active), No (inactive)

Solved entries (count: 5):
| COMPOUND | GROUP LABEL |
| --- | --- |
| C[C@]12CCC(=O)C[C@H]1CC[C@@H]1[C@@H]2CC[C@@]2(C)[C@H]1CC[C@]2(O)C(=O)CO | No |
| CCCCNCC(=O)Nc1ccc(C(=O)OCC)cc1 | No |
| CC(C)(C)Nc1c(-c2c3ccccc3cc3ccccc23)nc2ccccn12 | No |
| CC(=O)Nc1nccs1 | No |
| O=c1oc2ccc(Cl)cc2cc1-c1cs/c(=N/N=C\c2ccc(Cl)cc2)n1/N=C/c1ccc(Cl)cc1 | No |

Now let's try a different one.
Outcome logged for CCCCOc1nc2ccc(Cl)cc2cc1/C=C/C(=O)/C=C1/CC(c2cc3cc(Cl)ccc3nc2OCCCC)Nc2ccccc2N1 (stereo not drawn) in this assay:
No
